Test system: Isolated Rat Bladder Strips
Test: Inhibition of Contractions in Isolated Rat Bladder Strips (15 mM KCl-enhanced contractile activity)
Set-up: species or system Sprague-Dawley rats
Conditions: 0.5 h; isolated rat bladder strips, 15 mM KCl, 30 minute challenge; read-out: IC50, inhibition of contractions in isolated rat bladder strips
assayEndpoint: pIC50
// scale note: pIC50 = -log10(conc_M); give the bare number

Reported pIC50, compound CCC(C)(C)Nc1c(NCc2c(C)cc(Cl)cc2Cl)c(=O)c1=O : ____
6.70

Form field: reported pIC50 of CCC(C)(C)Nc1c(NCc2ccc(Cl)cc2Cl)c(=O)c1=O
6.96

Given CC(Nc1c(NCc2ccc(Cl)cc2Cl)c(=O)c1=O)C(C)(C)C (stereo not drawn) , state its recorded pIC50.
5.70

pIC50 for Cc1cc(Cl)cc(Cl)c1CNc1c(N[C@H](C)C(C)(C)C)c(=O)c1=O ?
5.01

Value lookup for pIC50; key = C[C@@H](Nc1c(NCc2ccc(Cl)cc2Cl)c(=O)c1=O)C(C)(C)C
6.47

Can you look up the measured pIC50 of CC(C)(C)Nc1c(NCc2ccc(Cl)c(Cl)c2)c(=O)c1=O for me?
5.83
